target: Pyroglutamylated RF-amide peptide receptor (Homo sapiens, UniProt Q96P65); test: Inhibition of human GPR103 receptor expressed in CHOK1 cells by IP-1 assay; assay type: cell-based, CHO-K1
Sequence (Q96P65 whole entry): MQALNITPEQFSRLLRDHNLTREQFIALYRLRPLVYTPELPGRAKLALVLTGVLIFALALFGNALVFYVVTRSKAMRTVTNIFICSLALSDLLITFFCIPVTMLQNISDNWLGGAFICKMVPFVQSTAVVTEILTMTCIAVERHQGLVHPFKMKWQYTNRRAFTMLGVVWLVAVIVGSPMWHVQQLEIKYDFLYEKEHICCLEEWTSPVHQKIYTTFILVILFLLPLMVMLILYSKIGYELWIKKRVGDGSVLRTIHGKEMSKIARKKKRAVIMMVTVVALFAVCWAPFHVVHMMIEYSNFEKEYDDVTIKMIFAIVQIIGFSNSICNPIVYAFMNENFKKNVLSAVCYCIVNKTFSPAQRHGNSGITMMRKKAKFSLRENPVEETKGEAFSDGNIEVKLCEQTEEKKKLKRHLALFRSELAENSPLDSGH
Threshold check on IC50: strictly below 0.6 µM is 1.0; on or above 0.6 µM is 0.0.

Worked set:
• CN(C)Cc1ccc2c(c1)CCN(C(=O)c1cc3cc(-c4ccccc4)ncc3n1C)C2 = 0.0
• Cc1cc2cc(C(=O)N3CCc4cc(CN(C)C)ccc4C3)n(C)c2cn1 = 0.0
• CC1CN(C(=O)c2cc3cc(Br)ncc3n2C)Cc2ccc(CN(C)C)cc21 (racemic) = 1.0
• C#Cc1cc2cc(C(=O)N3CCc4cc(CN(C)C)ccc4C3)n(C)c2cn1 = 0.0
• CN(C)Cc1ccc2c(c1)CCN(C(=O)c1cc3cc(Cl)ccc3n1C)C2 = 1.0

Alright, here's another compound for you.
Input line: Here's an entry: CN(C)Cc1ccc2c(c1)CCN(C(=O)c1cc3cc(I)ncc3n1C)C2 . Is its IC50 below 0.6 µM?
Output line: 1.0
